Just for reference, PubChem BioAssay (NCATS) is where these values come from.

assay: qHTS of pediatric cancer cell lines to identify multiple opportunities for drug repurposing: Confirmatory screen for A673 cells (AID 1347110); conditions: A673 Ewing sarcoma cell viability; series mostly up to 45.9 µM;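 note: cells exposed to compound for 48 h before the viability read; nearly all actives have a fitted effect of over 65% in size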
Results filed as inconclusive are left out. Activity calls are given as the source filed them. Calls come from the whole dose curve; as a rule, active = well fitted cell-killing curve with a large enough effect; inconclusive = small, poorly fitted or top-dose-only effect; inactive = flat fitted curve, though single readings scatter.
Classes used: active, inactive

chemical-smiles | assigned-label
CC(C)(C#N)c1cc(Cn2cncn2)cc(C(C)(C)C#N)c1 | inactive
CCOC(=O)[C@H](CCc1ccccc1)N[C@H]1CS[C@H](c2cccs2)CN(CC(=O)O)C1=O | active
COc1ccc(C(=O)CC(=O)c2ccc(C(C)(C)C)cc2)cc1 | inactive
CCc1c2c(nc3ccc(OC(=O)N4CCC(N5CCCCC5)CC4)cc13)-c1cc3c(c(=O)n1C2)COC(=O)[C@]3(O)CC | active
CNS(=O)(=O)CCc1ccc2[nH]cc(C3CCN(C)CC3)c2c1 | active
COc1ccc(-c2ccc3cc(C(=O)O)ccc3c2)cc1C12CC3CC(CC(C3)C1)C2 | active
COc1nc(N)nc2c1ncn2[C@@H]1O[C@H](CO)[C@@H](O)[C@@H]1O | active
Nc1nc(F)nc2c1ncn2[C@@H]1O[C@H](CO)[C@@H](O)[C@@H]1O | active
Cn1nnc2c(C(N)=O)ncn2c1=O | inactive
COc1cc2nc(N3CCCN(C)CC3)nc(NC3CCN(Cc4ccccc4)CC3)c2cc1OC | active

====

test: Quantitative High-Throughput drug screen in 47 multiple myeloma cell lines against the NCATS MIPE library collection: KMS11_JCRBsus cell viability assay (AID 1919873); settings: KMS11 myeloma viability, CellTiter-Glo ATP luminescence, 48 h; series mostly up to 45.8 µM; note: nearly all actives have a fitted effect of over 50% in size
Results filed as inconclusive are left out. Activity calls are given as the source filed them. The call rests on the fitted dose curve; in most records, active means well fitted cell-killing curve with a large enough effect; inconclusive means small, poorly fitted or top-dose-only effect, or effect the other way; inactive means no such curve, though single readings can be large or run the other way.
Labels: active, inactive

compound | assigned-label
C[C@@H](NCCCc1cccc(C(F)(F)F)c1)c1cccc2ccccc12 | inactive
Nc1nc(F)nc2c1ncn2[C@@H]1O[C@H](CO)[C@@H](O)[C@@H]1O | active
CC(=O)CC(c1ccccc1)c1c(O)c2ccccc2oc1=O (configuration not stated) | inactive
O=P(O)(O)C(O)(Cc1cccnc1)P(=O)(O)O | inactive
CCCOc1ccc(C(=O)OCCN(CC)CC)cc1N | active
CCOC(=O)c1ccc(OC(=O)CCCCCN=C(N)N)cc1 | inactive
COc1ncnc(NS(=O)(=O)c2ccc(N)cc2)c1OC | inactive
O=C(O)C1CCCN(CCC=C(c2ccccc2)c2ccccc2)C1 (configuration not stated) | inactive
O=C(N[C@H](CO)[C@H](O)c1ccc([N+](=O)[O-])cc1)C(Cl)Cl | inactive
O=NN(CCCl)C(=O)NC1CCCCC1 | inactive
CCOC(=O)[C@H](CCc1ccccc1)N[C@H]1CS[C@H](c2cccs2)CN(CC(=O)O)C1=O | active
CCN(C)C(=O)Oc1cccc([C@H](C)N(C)C)c1 | inactive
COc1cc(NS(=O)(=O)c2ccc(N)cc2)nc(OC)n1 | inactive
NC1(c2ccc(-c3nc4ccn5c(=O)[nH]nc5c4cc3-c3ccccc3)cc2)CCC1 | active
CCC(=O)O[C@]1(C(=O)SCF)[C@H](C)C[C@H]2[C@@H]3C[C@H](F)C4=CC(=O)C=C[C@]4(C)[C@@]3(F)[C@@H](O)C[C@@]21C | inactive
O=S(=O)(O)CCS | inactive
C#CCN[C@@H]1CCc2ccccc21 | inactive
Nc1nc(=S)c2[nH]cnc2[nH]1 | active
Cc1nnc(NS(=O)(=O)c2ccc(N)cc2)s1 | active
CCn1cc(C(=O)O)c(=O)c2cc(F)c(N3CCNCC3)cc21 | inactive
Cc1oc(=O)oc1CN1CCN(c2cc3c(cc2F)c(=O)c(C(=O)O)c2n3C(C)S2)CC1 (configuration not stated) | inactive
CC(C)C[C@H](NC(=O)[C@H](CCc1ccccc1)NC(=O)CN1CCOCC1)C(=O)N[C@@H](Cc1ccccc1)C(=O)N[C@@H](CC(C)C)C(=O)[C@@]1(C)CO1 | active

====

assay: Quantitative High-Throughput drug screen in 47 multiple myeloma cell lines against the NCATS MIPE library collection: PCM6_Riken cell viability assay (AID 1919870); settings: CellTiter-Glo ATP, 48 h; series mostly up to 45.8 µM; note: nearly all actives have a fitted effect of over 30% in size
Inconclusive results are not listed. Activity calls are given as the source filed them. Calls follow the shape of the dose curve; as a rule, active = well fitted cell-killing curve with a large enough effect; inconclusive = small, poorly fitted or top-dose-only effect, or effect the other way; inactive = no such curve, though single readings can be large or run the other way.
Possible outcomes: Y for active, N for inactive

molecule | assigned-label
CCCCS(=N)(=O)CCC(N)C(=O)O (configuration not stated) | Y
NC1(c2ccc(-c3nc4ccn5c(=O)[nH]nc5c4cc3-c3ccccc3)cc2)CCC1 | Y
OCc1ccc(-c2nn(Cc3ccccc3)c3ccccc23)o1 | N
CNNCc1ccc(C(=O)NC(C)C)cc1 | N
CC(C)C[C@H](NC(=O)[C@H](CCc1ccccc1)NC(=O)CN1CCOCC1)C(=O)N[C@@H](Cc1ccccc1)C(=O)N[C@@H](CC(C)C)C(=O)[C@@]1(C)CO1 | Y
CN(CCOc1ccc(CC2SC(=O)NC2=O)cc1)c1ccccn1 (configuration not stated) | N
Oc1c(Cl)cc(Cl)c2cccnc12 | Y
CCCCc1oc2ccc(NS(C)(=O)=O)cc2c1C(=O)c1ccc(OCCCN(CCCC)CCCC)cc1 | Y
Cn1nnc2c(C(N)=O)ncn2c1=O | N
CC1=C(C(=O)O)N2C(=O)[C@@H](NC(=O)C(N)c3ccccc3)[C@H]2SC1 (some centres not stated) | N
C[C@@H]1CN(c2c(F)c(N)c3c(=O)c(C(=O)O)cn(C4CC4)c3c2F)C[C@H](C)N1 | N
CC(=O)Oc1ccccc1C(=O)Nc1ncc([N+](=O)[O-])s1 | Y
Cc1ccc(S(=O)(=O)N[C@@H](Cc2ccccc2)C(=O)CCl)cc1 | Y
CNC(=O)c1cc(Oc2ccc(NC(=O)Nc3ccc(Cl)c(C(F)(F)F)c3)cc2)ccn1 | Y
CN1CCN(c2c(F)cc3c(=O)c(C(=O)O)cn4c3c2OCN4C)CC1 | N
OC(Cn1cncn1)(Cn1cncn1)c1ccc(F)cc1F | N
COc1c(N2CCNC(C)C2)c(F)cc2c(=O)c(C(=O)O)cn(C3CC3)c12 (configuration not stated) | N
Nc1nc(=S)c2[nH]cnc2[nH]1 | Y
COc1ccc2c(c1)c(CC(=O)OCC(=O)O)c(C)n2C(=O)c1ccc(Cl)cc1 | N
CN1CCCC(n2nc(Cc3ccc(Cl)cc3)c3ccccc3c2=O)CC1 (configuration not stated) | Y
Cc1oc(=O)oc1CN1CCN(c2cc3c(cc2F)c(=O)c(C(=O)O)c2n3C(C)S2)CC1 (configuration not stated) | N
CCCCCCNC(=O)n1cc(F)c(=O)[nH]c1=O | N

====

molecular target: Glucocorticoid receptor (Homo sapiens) (UniProt P04150); assay: GR-EFC Redistribution (AID 451); settings: CHO-K1 GR-EFC translocation, beta-gal luminescence, 2 h; note: potency is the fitted concentration of half-maximal effect
Sequence (P04150 whole entry, looked up): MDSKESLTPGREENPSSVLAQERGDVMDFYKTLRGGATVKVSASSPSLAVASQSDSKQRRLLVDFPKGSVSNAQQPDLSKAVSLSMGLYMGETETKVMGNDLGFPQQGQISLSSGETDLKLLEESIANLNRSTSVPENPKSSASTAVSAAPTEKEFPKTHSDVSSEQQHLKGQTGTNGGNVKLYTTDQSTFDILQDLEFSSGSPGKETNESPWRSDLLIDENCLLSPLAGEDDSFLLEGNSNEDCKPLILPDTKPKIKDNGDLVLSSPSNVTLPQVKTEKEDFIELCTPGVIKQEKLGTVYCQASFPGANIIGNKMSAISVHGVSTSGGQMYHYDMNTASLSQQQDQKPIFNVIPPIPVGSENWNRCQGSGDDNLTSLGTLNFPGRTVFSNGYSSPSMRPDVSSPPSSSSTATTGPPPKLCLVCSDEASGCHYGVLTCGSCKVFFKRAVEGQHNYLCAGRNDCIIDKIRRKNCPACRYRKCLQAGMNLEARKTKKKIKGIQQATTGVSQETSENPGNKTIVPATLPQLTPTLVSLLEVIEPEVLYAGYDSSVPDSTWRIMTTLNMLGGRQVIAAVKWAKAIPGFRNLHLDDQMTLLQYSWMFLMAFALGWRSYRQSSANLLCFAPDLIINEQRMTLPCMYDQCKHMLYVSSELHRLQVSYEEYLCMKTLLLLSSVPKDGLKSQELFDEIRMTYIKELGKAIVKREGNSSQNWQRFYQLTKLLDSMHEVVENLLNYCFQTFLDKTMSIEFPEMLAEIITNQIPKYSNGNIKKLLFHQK
Activity calls are given as the source filed them. Calls come from the whole dose curve.
attribute-measured: Potency

chemical-smiles | readout-value
COc1cnc(NS(=O)(=O)c2ccc(N)cc2)nc1 | > 20.6 µM (inactive)
N=C(N)c1ccc(OCCCCCOc2ccc(C(=N)N)cc2)cc1 | > 20.6 µM (inactive)
Nc1[nH]c(=O)ncc1F | > 20.6 µM (inactive)
CCCOc1ccc(C(=O)OCCN(CC)CC)cc1N | > 20.6 µM (inactive)
COc1ccc2cc3[n+](cc2c1OC)CCc1cc2c(cc1-3)OCO2 | > 20.6 µM (inactive)
NC(=O)c1cccc(N)c1 | > 46 µM (inactive)
CNNCc1ccc(C(=O)NC(C)C)cc1 | > 20.6 µM (inactive)
COC(=O)Nc1nc2ccc(Sc3ccccc3)cc2[nH]1 | > 20.6 µM (inactive)
NNC(=O)c1ccncc1 | > 20.6 µM (inactive)
Cc1cccc(Nc2ccncc2S(=O)(=O)NC(=O)NC(C)C)c1 | > 20.6 µM (inactive)
COC(=O)Nc1nc2ccc(C(=O)c3ccccc3)cc2[nH]1 | > 20.6 µM (inactive)
CCn1cc(C(=O)O)c(=O)c2cc(F)c(N3CCNCC3)cc21 | > 20.6 µM (inactive)
O=c1oc2c(O)c(O)cc3c(=O)oc4c(O)c(O)cc1c4c23 | > 46 µM (inactive)

====

test: Quantitative High-Throughput drug screen in 47 multiple myeloma cell lines against the NCATS MIPE library collection: Karpas25_ECACC cell viability assay (AID 1918968; note: nearly all actives have a fitted effect of over 35% in size); settings: Karpas25 myeloma viability, CellTiter-Glo ATP, 48 h; series mostly up to 45.8 µM
Records with an inconclusive call do not appear. Activity calls are given as the source filed them. The call rests on the fitted dose curve; in most records, active means well fitted cell-killing curve with a large enough effect; inconclusive means small, poorly fitted or top-dose-only effect, or effect the other way; inactive means no such curve, though single readings can be large or run the other way.
Labels: active, inactive

molecule | assigned-label
CCN1CCCC1CNC(=O)c1cc(S(N)(=O)=O)ccc1OC (centres undefined) | active
CC(N)C12CC3CC(CC(C3)C1)C2 (centres undefined) | inactive
Nc1nc(N)c2nc(CNc3ccc(C(=O)NC(CCC(=O)O)C(=O)O)cc3)cnc2n1 (centres undefined) | inactive
COC(c1ccccc1)(c1ccccc1)[C@H](Oc1nc(C)cc(C)n1)C(=O)O | inactive
